- TARGET DESC: DRB1*15:01 (Homo sapiens, UniProt P01903+P01911)
- ASSAY SUMMARY: Differential scanning fluorometry (DSF) peptide exchange assay
- Assay type: binding
- Parameters: unit not given here
- EXPERIMENTAL SETUP: DSF melting curve
# Low listing for each entry below
// no unit, no text: just the number

Some solved cases for reference:
PQLRQWWAQGADPLA [exchange peptide loaded on DRB1*15:01] ... 2.3
PPIDGYPNHPCFEPE [exchange peptide loaded on DRB1*15:01] ... 2.0
ASLRSWPSTWAPWAS [exchange peptide loaded on DRB1*15:01] ... 1.9

Now for the sequence whose Low we want.
Query: Report Low for LLRPGQIVAFDSTAQ [exchange peptide loaded on DRB1*15:01] please.
Result: 1.4

###

# Initial annotations
- TARGET DESC: DRB1*15:01 (Homo sapiens, UniProt P01903+P01911)
- ASSAY SUMMARY: Differential scanning fluorometry (DSF) peptide exchange assay
- Assay type: binding
- Design: unit not given here
- EXPERIMENTAL SETUP: DSF melting curve
Answer field: number only, no words.

PPIDGYPNHPCFEPE [exchange peptide loaded on DRB1*15:01] ... 2.8

Query: Could you share which Initial value was measured for ASLRSWPSTWAPWAS [exchange peptide loaded on DRB1*15:01] ?
Result: 2.5

Query: Same again, this time with PQLRQWWAQGADPLA [exchange peptide loaded on DRB1*15:01]
Result: 3.0

Query: Repeat for the following sequence: LLRPGQIVAFDSTAQ [exchange peptide loaded on DRB1*15:01]
Result: 1.8
